Measured melting point, listed per entry.

Use these answered entries as a reference point.
molecule: CC(CNC(=O)c1ccc(Oc2ccc(F)cc2)o1)N(O)C(N)=O (stereo not given)
melting point: 180 to 181 °C
//
molecule: O=Cc1c(O)c(O)cc2ccccc12
melting point: 132 to 133 °C
//
molecule: O=C(c1cccs1)c1cnn2c(-c3ccc(F)c(-c4ccc(CO)cc4)c3)ccnc12
melting point: 140 to 145 °C
//
molecule: NC1(CC(=O)O)CCCCC1
melting point: 200 to 204 °C
//
molecule: CC(C(=O)NCC(COC(=O)C(C)(C)C)Cc1ccc(C(C)(C)C)cc1)c1ccc(NS(C)(=O)=O)cc1 (stereo not given)
melting point: 97 to 100 °C
//
molecule: Cc1cc(Cl)c(C(N)=O)cc1[N+](=O)[O-]
melting point: 180 to 183 °C
//
molecule: N#CCC1CCN1C(c1ccccc1)c1ccccc1 (stereo not given)
melting point: 82 to 85 °C
//
molecule: Cc1cc2c(-c3ccccc3F)nc(=O)[nH]c2s1
melting point: 282 to 284 °C

Entry Cn1c(COc2ccc(C=C3SC(=O)NC3=O)cc2)nc2cccnc21 ; melting point = 279 to 281 °C

// melting point value for O=C(Nc1ccccc1)c1nn(-c2cccc(C(F)(F)F)c2)ccc1=O : 181 to 182 °C
